condition details: rat; liver microsomes; pH 7.4; 15.0 min; 1.0 µM
Property: half-life; scope: individual compounds
# output: bare number, implied unit min

[ask] What value of half-life has been recorded for this entry: CC1=C[C@@H](CNCc2cccnc2)[C@H](C(C)C)C[C@H]1Cc1nnc(-c2ccc([N+](=O)[O-])cc2)o1
[reply] 2.13

[ask] What value of half-life has been recorded for this entry: c1ccc(Nc2cc3c(cn2)CN(Cc2c[nH]c4ccccc24)CCN3)cc1
[reply] 7.47

[ask] What value of half-life has been recorded for this entry: Cc1ccc(-c2[nH]n3c(=O)c4c(nc3c2C)CCCC4)cc1
[reply] 8.72

[ask] What value of half-life has been recorded for this entry: CCOC(=O)c1nn(-c2ccccc2)c(=O)c2c(N)scc12
[reply] 2.12

[ask] What value of half-life has been recorded for this entry: c1ccc2c(NC3CCCCC3)nc(-c3ccncc3)nc2c1
[reply] 10

Next:
[ask] What value of half-life has been recorded for this entry: CN(C)c1ccc(-c2csc(N3CCC(C(N)=O)CC3)n2)cc1
[reply] 4.12

[ask] What value of half-life has been recorded for this entry: COc1cc2c(cc1Oc1cccc(N(C)C)c1)NC(=O)C21CCN(c2cnccn2)CC1
[reply] 1.77
